Reported Inhibition values follow for various compounds
Tested on: Staphylococcus aureus
setup.conditions: Concentration 32 ug.mL-1;; ASSAY_TEST Inhibition of Bacterial Growth; detection method Absorption (OD600); MEDIA CAMHB; plate type 384well; NBS; CORNING #3640; time 18 hr
Description: Antibacterial activity against Staphylococcus aureus MRSA ATCC 43300 (CO-ADD:GP_020); MIC in CAMBH media, using NBS plates, by OD(600)
Results with a measured potency or affinity are listed apart.
Use % as the unit, but write only the number.

Example compounds with recorded Inhibition:
CC(=O)c1cccc(NC(=O)Cn2c(=O)c3nnc(C(C)C)n3c3ccccc32)c1 9.36
O=C(CSc1nnc2c(=O)n(-c3ccc(F)c(F)c3)ccn12)c1c[nH]c2ccccc12 13.28
Cc1cccc(N(Cc2ccc(F)cc2)S(=O)(=O)c2cccn3c(C)nnc23)c1 15.38
CCc1ccccc1Sc1nccn2c(=O)n(CC(=O)N3CCN(c4ccc(F)cc4)CC3)nc12 2.23
Cc1ccc(NC(=O)Cn2nc3c(Oc4cccc(C)c4C)nccn3c2=O)c(Br)c1 0.42
CCc1nnc2c(S(=O)(=O)N(Cc3cccc(C)c3)c3ccc(Cl)cc3)cccn12 8.39

Lookup result for COc1cccc(Sc2nc3ccccc3n3c(=O)n(CC(=O)N4CCCc5ccccc54)nc23)c1 ; measured Inhibition: -3.45

Lookup result for Cc1cc(C)cc(NC(=O)Cn2nc3ccc(-c4ccc(C)c(C)c4)nn3c2=O)c1 ; measured Inhibition: 1.36

Lookup result for COc1ccc(NC(=O)Cn2nc3c4cc(-c5ccc(C)c(C)c5)nn4ccn3c2=O)cc1 ; measured Inhibition: 11.77

----------
Reported Inhibition values follow for various compounds
Test system: Staphylococcus aureus
setup.conditions: Concentration 32 ug.mL-1;; ASSAY_TEST Inhibition of Bacterial Growth; detection method Absorption (OD600); MEDIA CAMHB; plate type 384well; NBS; CORNING #3640; time 18 hr
Entries with a potency or affinity are not part of this list.
Use % as the unit, but write only the number.

Lookup result for Cc1nnc2ccc(S(=O)(=O)N(Cc3ccccc3F)c3cccc(F)c3)cn12 ; measured Inhibition: 9.15

----------
Test system: Staphylococcus aureus
setup.conditions: Concentration 32 ug.mL-1;; ASSAY_TEST Inhibition of Bacterial Growth; detection method Absorption (OD600); MEDIA CAMHB; plate type 384well; NBS; CORNING #3640; time 18 hr
Potency and affinity values are given separately.
Reported Inhibition values follow for various compounds
Use % as the unit, but write only the number.

Example compounds with recorded Inhibition:
Cc1ccc(NC(=O)Cn2nc3cc(C)nc(Nc4ccc(F)cc4)n3c2=O)cc1 6.17
Cc1cc2nn(CC(=O)Nc3cc(F)ccc3F)c(=O)n2c(Nc2ccc(F)c(C)c2)n1 -14.31
CSc1cccc(NC(=O)Cn2c(=O)c3nnc(C(C)C)n3c3ccccc32)c1 14.38

Lookup result for CCOC(=O)c1ccc(NC(=O)Cn2nc3c4cc(-c5ccc(C)c(C)c5)nn4ccn3c2=O)cc1 ; measured Inhibition: 3.76

Lookup result for COc1ccccc1NC(=O)Cn1nc2n(CCCOC(C)C)c(=O)c3ccccc3n2c1=O ; measured Inhibition: 11.96

Lookup result for Cc1ccccc1Cn1nc2c(=O)n(-c3ccc(Br)cc3)ccn2c1=O ; measured Inhibition: 4.33

Lookup result for COc1ccccc1-n1ccn2c(SCc3cccc(F)c3)nnc2c1=O ; measured Inhibition: 11.17

Lookup result for CC(C)CCn1c(=O)c2ccccc2n2c(=O)n(CC#N)nc12 ; measured Inhibition: 16.96

Lookup result for Cc1cccc(C)c1NC(=O)CSc1nc2ccccc2n2c(C)nnc12 ; measured Inhibition: 11.69

Lookup result for O=C(Cn1nc2ccc(Sc3cccc(F)c3)nn2c1=O)NCc1ccc(C(F)(F)F)cc1 ; measured Inhibition: 12.64

----------
Test system: Escherichia coli
setup.conditions: Concentration 32 ug.mL-1;; ASSAY_TEST Inhibition of Bacterial Growth; detection method Absorption (OD600); MEDIA CAMHB; plate type 384well; NBS; CORNING #3640; time 18 hr
Description: Antibacterial activity against Escherichia coli ATCC 25922 (CO-ADD:GN_001); MIC in CAMBH media using NBS plates, by OD(600)
Entries with a potency or affinity are not part of this list.
Reported Inhibition values follow for various molecules
Use % as the unit, but write only the number.

O=S(=O)(c1ccc2nncn2c1)N(Cc1cc(F)cc(F)c1)c1ccc(F)cc1 -3.43
O=c1n(Cc2cccc(C(F)(F)F)c2)nc2c(S(=O)(=O)N3CCCC3)cccn12 -1.06
COc1cccc(N(Cc2ccc(F)cc2)S(=O)(=O)c2ccc3nncn3c2)c1 -9.93
Cc1cccc(CN(c2cccc(F)c2)S(=O)(=O)c2ccc3nncn3c2)c1 -9.18
CCc1nnc2c(=O)n(CC(=O)Nc3ccc4c(c3)OCCO4)c3ccccc3n12 -4.51
CCOc1ccc(C(=O)CSc2nnc3c(=O)n(-c4ccc(F)cc4)ccn23)cc1 1.42
C=Cc1ccc(CN(c2ccc(Cl)cc2)S(=O)(=O)c2cccn3c(C)nnc23)cc1 -3.28
Cc1cc2nn(CC(=O)Nc3cccc(C)c3C)c(=O)n2c(Nc2ccc(F)c(C)c2)n1 -7.8
CCOc1ccc(N(Cc2ccccc2)S(=O)(=O)c2ccc3nncn3c2)cc1 -1.41

// moving on: another record for Inhibition
Lookup result for CC(C)(C)NC(=O)Cn1nc2n(Cc3cccs3)c(=O)c3sccc3n2c1=O ; measured Inhibition: -5.05

----------
Reported Inhibition values follow for various compounds
System: Escherichia coli
setup.conditions: Concentration 32 ug.mL-1;; ASSAY_TEST Inhibition of Bacterial Growth; detection method Absorption (OD600); MEDIA CAMHB; plate type 384well; NBS; CORNING #3640; time 18 hr
Potency and affinity values are given separately.
Use % as the unit, but write only the number.

Example compounds with recorded Inhibition:
compound	Inhibition [%]
Cc1cccc(N(C)C(=O)Cn2nc3cc(C)nc(Nc4ccc(C)c(F)c4)n3c2=O)c1	0.9
O=C(Cn1nc2c3sccc3ncn2c1=O)Nc1ccc2c(c1)OCO2	-14.29
CC(C)c1nnc2c(=O)n(CC(=O)Nc3ccc(Br)cc3)c3ccccc3n12	7.11
COc1ccc(-n2ccn3c(-c4ccc([N+](=O)[O-])cc4)nnc3c2=O)cc1Cl	1.52
O=C(Cn1nc2c(N3CCSCC3)nc3ccccc3n2c1=O)Nc1ccc(Br)cc1	-4.32
Cc1ccc(-c2cc3c4nn(CC(=O)Nc5ccc(Cl)cc5)c(=O)n4ccn3n2)cc1C	-16.09
COc1ccc(NC(=O)Cn2nc3c(N4CCCC(C)C4)nccn3c2=O)cc1OC (stereo not given)	-13.91
O=c1n(Cc2cccc(Cl)c2)nc2ccc(-c3ccccc3)nn12	0.79
Cc1ccccc1Oc1nccn2c(=O)n(CC(=O)Nc3cc(F)ccc3F)nc12	-2.39
O=C(CSc1nc2ccccc2n2cnnc12)Nc1cccc(Br)c1	-14.46

Lookup result for COc1cccc(NC(=O)Cn2nc3c(Sc4ccccc4)nccn3c2=O)c1 ; measured Inhibition: 0.48

Lookup result for Cc1ccc(-c2ccc3nn(Cc4cccc(Br)c4)c(=O)n3n2)cc1C ; measured Inhibition: -2.14

----------
System: Escherichia coli
setup.conditions: Concentration 32 ug.mL-1;; ASSAY_TEST Inhibition of Bacterial Growth; detection method Absorption (OD600); MEDIA CAMHB; plate type 384well; NBS; CORNING #3640; time 18 hr
Results with a measured potency or affinity are listed apart.
Reported Inhibition values follow for various compounds
Use % as the unit, but write only the number.

Cc1ccc(-c2ccc3nn(Cc4ccc(F)cc4Cl)c(=O)n3n2)cc1C -0.58
COc1cccc(-n2ccn3c(SCc4ccc(Cl)cc4)nnc3c2=O)c1 1.4
CCOC(=O)c1ccccc1NC(=O)CSc1nc2ccccc2n2c(C(C)C)nnc12 -2.48
Cc1oc(-c2cccc(Cl)c2)nc1CSc1nc2ccccc2n2c(C(C)C)nnc12 -2.96
Cc1cccc(Oc2nccn3c(=O)n(CC(=O)Nc4cccc(C(F)(F)F)c4)nc23)c1C -4.64

Lookup result for COC(=O)c1ccccc1NC(=O)Cn1nc2c(Oc3ccc(C)cc3)nccn2c1=O ; measured Inhibition: -6.37

Lookup result for Cc1cc2nn(CC(=O)Nc3cc(F)cc(F)c3)c(=O)n2c(Nc2ccc(F)c(C)c2)n1 ; measured Inhibition: -2.56

Lookup result for Cc1ccc(-c2ccc3nn(CC(=O)Nc4ccc(Br)cc4F)c(=O)n3n2)cc1 ; measured Inhibition: -3

Lookup result for COc1ccc(CNC(=O)Cn2nc3c4cc(-c5ccc(OC)cc5)nn4ccn3c2=O)cc1 ; measured Inhibition: -1.87

Lookup result for CCCN(C)c1nccn2c(=O)n(CC(=O)Nc3cccc(SC)c3)nc12 ; measured Inhibition: -2.46

Lookup result for Cc1ccc(-c2ccc3nn(CC(=O)N4CCN(c5ccccc5F)CC4)c(=O)n3n2)cc1C ; measured Inhibition: -1.18

Lookup result for COc1ccc(OC)c(NC(=O)Cn2nc3c4cc(-c5ccc(Cl)cc5)nn4ccn3c2=O)c1 ; measured Inhibition: -2.51

Lookup result for CSc1ccc(-c2noc(Cn3nc4ccc(-c5ccccc5)nn4c3=O)n2)cc1 ; measured Inhibition: 0.55

Lookup result for C=Cc1ccc(Cn2nc3c(=O)n(-c4ccc(C)c(C)c4)ccn3c2=O)cc1 ; measured Inhibition: 3.59

Lookup result for Cc1nnc2c(S(=O)(=O)N(Cc3ccc(F)cc3)c3ccc(Cl)cc3)cccn12 ; measured Inhibition: -5.38
